target.entity: T1, CD27 expressed on the cell surface (HT1080_CD27 cells) (human, UniProt P26842 20-260); note: test concentration or dose not given here
T1 sequence (looked up): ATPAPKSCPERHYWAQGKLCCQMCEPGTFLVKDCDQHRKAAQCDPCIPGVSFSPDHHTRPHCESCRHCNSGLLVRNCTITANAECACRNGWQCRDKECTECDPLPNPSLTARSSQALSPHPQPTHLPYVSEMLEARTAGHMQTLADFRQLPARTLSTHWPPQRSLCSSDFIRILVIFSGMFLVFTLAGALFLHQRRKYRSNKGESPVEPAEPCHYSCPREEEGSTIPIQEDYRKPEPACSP
experiment: cell-based or functional assay
Hi, to clarify the labels: class 1 covers IL-8 [abs. corr.] from 0.1 abs. corr. upward, class 0 covers anything below 0.1 abs. corr..

binder: P018.S.04.A.A01 (antibody, V domains shown, V regions on human Ig constant parts; also called AB27_64) VH: QEQLVESGGGLVQPEGSLTLTCTESGFSFSSNAVCWVRQAPGKGLEWIACIYVDSIGSTWYASWAKGRFTISKTSSTTVTLQMTSLTAADTATYFCARGDNIAYFMLWGPGTLVTVSS VL: DIVMTQTPASVEAAVGGTVTIRCQASESITSFLSWYQQKPGQPPKLLIYKISTLASGVPSRFKASGSGTEFTLTISDLESADAAAYYCQGYYYYSNVVYASNGFGGGTEVVVK
label: class 1

binder: P018.S.02.A.B03 (antibody, V domains shown, V regions on human Ig constant parts; also called AB27_30) VH: QSLEESGGGLVKPGGTLTLTCTASGFSLSSTYMSWVRQAPGKGLEWIGDIYTDGSTYYASWVNGRFTISKTSTTVDLKMTSLTTEDTATYFCARGAAAAYDLWGQGTLVTVSS VL: AYDMTQTPASVSAAVGGTVTIKCQASQNIYTNLAWYQQKPGQPPKLLIYGVSNLESGVPSRFKGSGSGTQFTLTISGVQSDDAATYYCQQGYSSTNVENAFGGGTEVVVK
label: class 1

binder: P018.S.02.A.F06 (antibody, V domains shown, V regions on human Ig constant parts; also called AB27_36) VH: QSVEESGGRLVTPGTPLTLTCTVSGFSLSSYVMSWVRQAPGKGLEWIGYIDYGGTPYYASWAKGRFTISKTSTTVELKITSPTIEDTATYFCARGGYGGYILVTGLWGPGTLVTVSS VL: DVVMTQTPASVSEPVGGTVTIKCQASQSISSYCSWYQQRPGQPPKLLIYGASTLASGVPSRFKGSGSGTEYTLTISDLESADAATYYCQTYYGGGPFGNGFGGGTEVVVK
label: class 0

Test whether the binder P018.S.01.A.H06 (antibody, V domains shown, V regions on human Ig constant parts; also called AB27_26) VH: QEQLKESGGRLVKPDETLTITCTASGFSLSRYDMSWVRQAPGKGLEWIGSIWSDGDTDYANWAKGRFTISKTSTTVDLKITSPTTEDTATYFCARGYTAWSLWGPGTLVTVSS VL: ALVMTQTPSPVSAAVGGTVTISCQSSESVVGNNALSWFQQKPGQPPKLLNYQASTLASGVSSRFSGSGSGTQFTLTISGVQSDDAATYYCQGTYYSSGWYFAFGGGTEVVVK records IL-8 [abs. corr.] of 0.1 abs. corr. or higher.
class 1

Assess whether reported IL-8 [abs. corr.] for P018.S.07.A.C06 (antibody, V domains shown, V regions on human Ig constant parts; also called AB27_121) VH: QSVEESGGRLVTPGTPLTLTCTVSGFSLNHYHMCWVRQAPGKGLEYIGRIDNSGYIVYASWAKGRFTISKTSTTVDLKITSPTTADTATYFCGKYYSGGSYDLWGQGTLVTVSS VL: AQVLTQTASSVSAAVGGTVTISCQSSQSVWNNNWLAWYQQKPGQPPKLLIYETSKLASGVPSRFKGSGSGTQFTLTISGVQSDDAATYYCQGEFSCSSDDCNAFGGGTEVVVK sits at 0.1 abs. corr. or higher.
class 1
